Data export: pIC50 values recorded with HDAC1 (Homo sapiens).
Sequence (Q13547 whole entry): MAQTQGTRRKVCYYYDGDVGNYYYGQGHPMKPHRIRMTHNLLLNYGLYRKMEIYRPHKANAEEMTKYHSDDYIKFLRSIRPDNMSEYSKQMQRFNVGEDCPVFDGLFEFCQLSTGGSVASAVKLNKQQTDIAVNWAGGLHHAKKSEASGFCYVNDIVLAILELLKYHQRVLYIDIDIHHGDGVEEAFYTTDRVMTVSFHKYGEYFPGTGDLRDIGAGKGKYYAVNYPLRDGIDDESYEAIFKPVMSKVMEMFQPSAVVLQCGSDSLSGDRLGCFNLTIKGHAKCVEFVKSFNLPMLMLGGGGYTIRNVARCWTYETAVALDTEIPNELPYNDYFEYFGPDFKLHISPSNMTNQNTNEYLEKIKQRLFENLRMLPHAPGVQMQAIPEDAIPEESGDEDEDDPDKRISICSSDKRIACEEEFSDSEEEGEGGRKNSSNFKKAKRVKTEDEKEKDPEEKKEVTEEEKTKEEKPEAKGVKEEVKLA
Quick note: pIC50 values are minus log10 of concentrations in mol/L.

Tell us which pIC50 value is on record for `CC(=O)O[C@H](C)C(=O)CCCCC[C@@H]1NC(=O)[C@H]2CCCN2C(=O)[C@H](Cc2ccccc2)NC(=O)C(C)(C)NC1=O`
6.41

Tell us which pIC50 value is on record for `C[C@@H](O)C(=O)CCCCC[C@@H]1NC(=O)[C@H]2CCCN2C(=O)[C@H](Cc2ccccc2)NC(=O)C(C)(C)NC1=O`
6.02

Tell us which pIC50 value is on record for C[C@@H](O)C(=O)CCCCCCC(=O)Nc1ccccc1 [Compound 11b, (R)-9-Hydroxy-8-oxo-N-phenyldecanamide]
5.10

Tell us which pIC50 value is on record for C[C@H](O)C(=O)CCCCCCC(=O)Nc1cccc(-c2cn(-c3ccccc3)nn2)c1 [Compound 11e]
5.30

###

Data export: pIC50 values recorded with HDAC6 (Homo sapiens, UniProt Q9UBN7).
Sequence (Q9UBN7 whole entry): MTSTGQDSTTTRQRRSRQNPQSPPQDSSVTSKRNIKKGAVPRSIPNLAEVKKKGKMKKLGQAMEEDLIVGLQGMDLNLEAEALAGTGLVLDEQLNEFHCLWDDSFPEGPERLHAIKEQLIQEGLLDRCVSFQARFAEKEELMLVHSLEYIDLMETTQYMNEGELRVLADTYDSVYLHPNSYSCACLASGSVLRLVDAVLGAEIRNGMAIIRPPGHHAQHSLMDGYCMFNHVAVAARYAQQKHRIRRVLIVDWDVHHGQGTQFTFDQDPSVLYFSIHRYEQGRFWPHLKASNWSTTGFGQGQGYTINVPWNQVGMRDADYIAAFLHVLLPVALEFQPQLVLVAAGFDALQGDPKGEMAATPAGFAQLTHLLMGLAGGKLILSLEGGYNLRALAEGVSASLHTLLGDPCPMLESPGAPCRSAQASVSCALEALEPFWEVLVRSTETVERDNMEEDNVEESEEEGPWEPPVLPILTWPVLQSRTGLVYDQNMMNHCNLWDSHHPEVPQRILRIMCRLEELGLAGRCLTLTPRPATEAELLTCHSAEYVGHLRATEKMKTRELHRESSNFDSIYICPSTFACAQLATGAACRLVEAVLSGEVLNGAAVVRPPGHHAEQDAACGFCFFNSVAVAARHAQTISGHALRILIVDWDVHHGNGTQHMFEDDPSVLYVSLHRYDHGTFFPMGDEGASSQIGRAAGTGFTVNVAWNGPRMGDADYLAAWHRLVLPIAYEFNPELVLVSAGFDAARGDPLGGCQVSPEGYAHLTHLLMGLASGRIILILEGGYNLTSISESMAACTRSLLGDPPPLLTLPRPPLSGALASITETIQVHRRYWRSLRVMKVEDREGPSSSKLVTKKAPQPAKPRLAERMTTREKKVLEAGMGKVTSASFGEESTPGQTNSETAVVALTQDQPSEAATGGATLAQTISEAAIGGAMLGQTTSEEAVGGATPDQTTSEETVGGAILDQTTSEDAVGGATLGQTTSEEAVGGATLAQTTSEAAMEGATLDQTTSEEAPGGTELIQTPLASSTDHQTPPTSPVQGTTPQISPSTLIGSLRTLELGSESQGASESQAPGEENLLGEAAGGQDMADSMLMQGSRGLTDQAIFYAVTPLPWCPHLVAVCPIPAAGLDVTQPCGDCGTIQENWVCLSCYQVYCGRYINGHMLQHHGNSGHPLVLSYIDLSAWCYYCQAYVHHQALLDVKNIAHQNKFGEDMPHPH
pIC50: −log10 of the molar value.

Tell us which pIC50 value is on record for C[C@@H](O)C(=O)CCCCCCC(=O)Nc1ccccc1 [Compound 11b, (R)-9-Hydroxy-8-oxo-N-phenyldecanamide]
< 3.52

Tell us which pIC50 value is on record for CC(=O)O[C@H](C)C(=O)CCCCCCC(=O)Nc1ccccc1 [Compound 12b]
< 3.52

Tell us which pIC50 value is on record for `C[C@@H](O)C(=O)CCCCC[C@@H]1NC(=O)[C@H]2CCCN2C(=O)[C@H](Cc2ccccc2)NC(=O)C(C)(C)NC1=O`
< 3.52

Tell us which pIC50 value is on record for C[C@H](O)C(=O)CCCCCCC(=O)Nc1cccc(-c2cn(-c3ccccc3)nn2)c1 [Compound 11e]
< 3.52

Tell us which pIC50 value is on record for `CC(=O)O[C@H](C)C(=O)CCCCC[C@@H]1NC(=O)[C@H]2CCCN2C(=O)[C@H](Cc2ccccc2)NC(=O)C(C)(C)NC1=O`
< 3.52

Tell us which pIC50 value is on record for C[C@@H](O)C(=O)CCCCCC(=O)Nc1ccccc1 [Compound 11a, (R)-8-Hydroxy-7-oxo-N-phenylnonanamide]
3.99

###

# Study Target: HDAC3/NCOR2 (Homo sapiens)
# Sequence (O15379 whole entry): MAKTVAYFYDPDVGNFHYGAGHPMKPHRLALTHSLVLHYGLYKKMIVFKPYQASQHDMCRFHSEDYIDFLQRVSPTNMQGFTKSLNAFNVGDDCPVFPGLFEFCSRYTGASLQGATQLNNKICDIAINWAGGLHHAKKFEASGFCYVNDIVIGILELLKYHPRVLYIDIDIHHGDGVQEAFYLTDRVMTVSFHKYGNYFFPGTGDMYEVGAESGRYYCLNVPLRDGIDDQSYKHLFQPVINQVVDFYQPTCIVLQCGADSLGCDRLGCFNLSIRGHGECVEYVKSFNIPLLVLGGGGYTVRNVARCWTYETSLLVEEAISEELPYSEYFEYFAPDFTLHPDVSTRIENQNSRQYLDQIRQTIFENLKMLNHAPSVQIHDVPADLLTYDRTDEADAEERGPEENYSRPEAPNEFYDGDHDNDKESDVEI
# Sequence (Q9Y618 395-489 partner limits assumed): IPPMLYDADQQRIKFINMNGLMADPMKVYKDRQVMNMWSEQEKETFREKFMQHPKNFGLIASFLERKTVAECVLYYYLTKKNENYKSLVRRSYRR
# Protocol Description: HDAC3/NCOR2 enzymatic inhibition assay
Record form. Attribute: IC50. Fill in for each entry.
Param answer (str): number followed by unit.

Tell us which IC50 value is on record for CC(=O)O[C@H](C)C(=O)CCCCC[C@@H]1NC(=O)[C@H]2CCCN2C(=O)[C@H](Cc2ccccc2)NC(=O)C(C)(C)NC1=O [Compound 13]
350 nM

Tell us which IC50 value is on record for C[C@@H](O)C(=O)CCCCCCC(=O)Nc1ccccc1 [Compound 11b, (R)-9-Hydroxy-8-oxo-N-phenyldecanamide]
50200 nM

Tell us which IC50 value is on record for C[C@@H](O)C(=O)CCCCC[C@@H]1NC(=O)[C@H]2CCCN2C(=O)[C@H](Cc2ccccc2)NC(=O)C(C)(C)NC1=O [Compound 3]
330 nM

Tell us which IC50 value is on record for C[C@H](O)C(=O)CCCCCCC(=O)Nc1cccc(-c2cn(-c3ccccc3)nn2)c1 [Compound 11e]
1970 nM

###

# Study Target: HDAC8 (Homo sapiens, UniProt Q9BY41)
# Sequence (Q9BY41 1-377): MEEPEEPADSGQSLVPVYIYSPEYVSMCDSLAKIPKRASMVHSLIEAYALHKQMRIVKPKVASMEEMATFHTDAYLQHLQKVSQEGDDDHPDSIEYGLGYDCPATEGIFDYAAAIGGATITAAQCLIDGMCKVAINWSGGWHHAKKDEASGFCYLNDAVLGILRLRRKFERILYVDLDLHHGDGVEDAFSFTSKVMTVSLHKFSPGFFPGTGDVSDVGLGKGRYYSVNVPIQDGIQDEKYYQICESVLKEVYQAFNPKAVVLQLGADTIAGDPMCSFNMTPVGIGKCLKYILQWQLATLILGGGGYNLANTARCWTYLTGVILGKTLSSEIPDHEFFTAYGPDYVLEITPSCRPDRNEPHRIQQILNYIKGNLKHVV
Record form. Attribute: pIC50. Fill in for each entry.
Quick note: pIC50 values are minus log10 of concentrations in mol/L.

Tell us which pIC50 value is on record for `CC(=O)O[C@H](C)C(=O)CCCCC[C@@H]1NC(=O)[C@H]2CCCN2C(=O)[C@H](Cc2ccccc2)NC(=O)C(C)(C)NC1=O`
5.73

Tell us which pIC50 value is on record for `C[C@@H](O)C(=O)CCCCC[C@@H]1NC(=O)[C@H]2CCCN2C(=O)[C@H](Cc2ccccc2)NC(=O)C(C)(C)NC1=O`
5.15

The measurements presented in this section are drawn from paper PMC6044785.
